Target: Pro-neuregulin-1, membrane-bound isoform (Homo sapiens) (UniProt Q02297)
Sequence (Q02297 whole entry, looked up, canonical isoform): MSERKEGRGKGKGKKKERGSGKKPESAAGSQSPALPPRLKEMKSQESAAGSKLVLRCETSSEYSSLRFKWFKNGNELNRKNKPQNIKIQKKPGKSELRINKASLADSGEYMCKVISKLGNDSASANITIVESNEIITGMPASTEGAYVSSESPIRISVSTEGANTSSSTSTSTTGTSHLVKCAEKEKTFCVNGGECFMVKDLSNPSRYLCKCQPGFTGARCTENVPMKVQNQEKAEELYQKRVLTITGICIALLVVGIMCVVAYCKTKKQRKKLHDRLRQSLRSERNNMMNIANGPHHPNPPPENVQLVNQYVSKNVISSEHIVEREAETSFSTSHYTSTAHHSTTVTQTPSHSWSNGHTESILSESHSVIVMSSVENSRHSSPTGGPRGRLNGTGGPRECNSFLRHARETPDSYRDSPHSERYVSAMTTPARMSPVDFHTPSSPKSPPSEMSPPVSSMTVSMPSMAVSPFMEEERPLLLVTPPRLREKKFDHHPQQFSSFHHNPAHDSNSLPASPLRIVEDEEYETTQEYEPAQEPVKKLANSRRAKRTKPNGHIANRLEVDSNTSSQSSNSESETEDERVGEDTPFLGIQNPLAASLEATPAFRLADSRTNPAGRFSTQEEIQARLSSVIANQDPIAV
Experiment: NRG1 binders on small-molecule microarrays, primary screen, psychiatric disease protein project, biochemical, small-molecule microarray, fluorescence 635/667 (AID 1075);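 note: score combines 667 nm spot fluorescence with signal to noise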
Details: NRG1 binding, 635 nm fluorescence, higher = more signal
Binary classification by composite z-score, with 1 as an inclusive lower bound for Satisfied; all other cases are Not satisfied.

Here are 5 compounds together with their reported answers.
- COMPOUND: "COC(=O)C1=CC(CCCO)=CC(C2CC2)N(Cc2cccc(OC(F)(F)F)c2)C=C1C(=O)OC (stereo not drawn)"
  CLASS_LABEL: "Satisfied"
- COMPOUND: "CC(C)CNC(=O)[C@@H]1c2ccccc2C(=O)N(CC23CC4CC(CC(C4)C2)C3)[C@H]1c1ccc(CO)cc1"
  CLASS_LABEL: "Not satisfied"
- COMPOUND: "CC(C)C(=C=CC[C@@H](O)c1cccc(OCCO)c1)CCO"
  CLASS_LABEL: "Not satisfied"
- COMPOUND: "CN(C)CCCCNC(=O)[C@H]1C[C@H]2C(=O)NCC(=O)N2[C@H]1c1cccc(OCCO)c1"
  CLASS_LABEL: "Not satisfied"
- COMPOUND: "CC(=O)n1cc(C(O)C2C=CC3C(=O)N(c4ccccc4)C(=O)C3N2Nc2ccccc2F)c2ccccc21 (stereo not drawn)"
  CLASS_LABEL: "Satisfied"

Please indicate if the recorded composite z-score for C=CCNC(=O)[C@H]1[C@@H]2C(=O)O[C@@H](c3ccccc3)[C@@H](c3ccccc3)N2[C@@H](c2ccccc2OCCO)[C@]12C(=O)N(C(=O)OCCOC)c1ccccc12 meets or exceeds 1.
Satisfied

Please indicate if the recorded composite z-score for C=CC[C@@]12N=C(c3ccc(OCCCO)cc3)O[C@@H]1c1ccccc1N(Cc1ccccc1)C2=O meets or exceeds 1.
Satisfied

Please indicate if the recorded composite z-score for C/C=C/CN(C(=O)C#Cc1ccccc1)[C@H](CO[Si](C)(C)C(C)(C)C)c1ccccc1 meets or exceeds 1.
Not satisfied

Please indicate if the recorded composite z-score for C=C(C(=O)CC[C@@H](OC(C)=O)c1cccc(OCCO)c1)C(C)C meets or exceeds 1.
Satisfied

Please indicate if the recorded composite z-score for C=CCC(OC(C)=O)[C@@H]1[C@@H](N(Cc2cc3ccccc3o2)C(=O)c2ccc(-c3ccccc3)cc2)c2cc(OCCCO)ccc2N1C(=O)c1ccc2ccccc2n1 (stereo partly drawn) meets or exceeds 1.
Not satisfied

Please indicate if the recorded composite z-score for COC(=O)c1c(CC[C@@H](CO)NC(=O)N[C@@H](Cc2ccccc2)Cn2cc(-c3cncn3C)nn2)oc(C(C)=O)c1C(=O)OC meets or exceeds 1.
Satisfied

Please indicate if the recorded composite z-score for CCOC(=O)C[C@H]1[C@H](OC(=O)c2ccc(C(=O)c3ccccc3)cc2)[C@@H](NC(=O)c2ccc3ccccc3c2)c2cc(OCCCO)ccc2N1C(=O)c1ccc2ccccc2n1 meets or exceeds 1.
Not satisfied

Please indicate if the recorded composite z-score for COCCOC(=O)N1C(=O)[C@@]2(c3cc(C#Cc4ccc(OC)cc4)ccc31)[C@H](C(=O)N1CCCCCCC1)[C@H]1C(=O)O[C@H](c3ccccc3)[C@H](c3ccccc3)N1[C@@H]2c1ccccc1OCCO meets or exceeds 1.
Satisfied

Please indicate if the recorded composite z-score for C=C(/C(=C/C[C@@H](OC(C)=O)c1ccccc1OCCO)c1cc(C(=O)OC)ccc1OC)C(C)C meets or exceeds 1.
Not satisfied

// provenance: PubChem BioAssay
